DiFMuAc assay %Inhibiton (37.5 µM) by entry:
subject of test: PARK7 (Homo sapiens, UniProt Q99497)
Sequence (Q99497 whole entry): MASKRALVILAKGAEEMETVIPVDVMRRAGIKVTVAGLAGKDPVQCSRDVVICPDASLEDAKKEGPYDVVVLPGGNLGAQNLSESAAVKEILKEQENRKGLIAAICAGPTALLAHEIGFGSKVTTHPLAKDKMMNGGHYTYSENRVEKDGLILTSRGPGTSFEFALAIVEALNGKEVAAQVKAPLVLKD
method description: DiFMUAc PARK7 activity assay
Format: biochemical
Design: GST (N, cleaved yes); made in house; host or cells: E. coli BL21(DE3) Rosetta2
assay context: 37.5 µM compound, PARK7 0.1 μM, 2 h preincubation, DiFMUAc 300 μM
Give the quantity in %, number only.

Example entries begin here.
O=C(CSC(F)(F)F)Nc1cccc(S(=O)(=O)F)c1 [Z1713569375]    49.1
CC(C#N)NS(=O)(=O)c1cccc(S(=O)(=O)F)c1 (stereo not shown) [Z2509451091]    95.2
Cc1conc1NS(=O)(=O)c1cccc(S(=O)(=O)F)c1 [Z2509450956]    98.2
Cc1ccc(C(=O)O)cc1S(=O)(=O)F [Z3242849759]    95.8
CSC1(C(=O)Nc2cccc(S(=O)(=O)F)c2)CC1 [Z1832812427]    92.6

### Prompt Request the reported DiFMuAc assay %Inhibiton (37.5 µM) associated with O=[N+]([O-])c1ccccc1S(=O)(=O)F [Z3223579620]
### Response 98.3

### Prompt Next up: O=[N+]([O-])c1cccc(S(=O)(=O)F)c1 [Z3243697698]
### Response 100.0
